TARGET_ENTITY: EGFR^T790M (Homo sapiens, UniProt P00533, T790M)
Sequence (P00533 25-1210 T790M): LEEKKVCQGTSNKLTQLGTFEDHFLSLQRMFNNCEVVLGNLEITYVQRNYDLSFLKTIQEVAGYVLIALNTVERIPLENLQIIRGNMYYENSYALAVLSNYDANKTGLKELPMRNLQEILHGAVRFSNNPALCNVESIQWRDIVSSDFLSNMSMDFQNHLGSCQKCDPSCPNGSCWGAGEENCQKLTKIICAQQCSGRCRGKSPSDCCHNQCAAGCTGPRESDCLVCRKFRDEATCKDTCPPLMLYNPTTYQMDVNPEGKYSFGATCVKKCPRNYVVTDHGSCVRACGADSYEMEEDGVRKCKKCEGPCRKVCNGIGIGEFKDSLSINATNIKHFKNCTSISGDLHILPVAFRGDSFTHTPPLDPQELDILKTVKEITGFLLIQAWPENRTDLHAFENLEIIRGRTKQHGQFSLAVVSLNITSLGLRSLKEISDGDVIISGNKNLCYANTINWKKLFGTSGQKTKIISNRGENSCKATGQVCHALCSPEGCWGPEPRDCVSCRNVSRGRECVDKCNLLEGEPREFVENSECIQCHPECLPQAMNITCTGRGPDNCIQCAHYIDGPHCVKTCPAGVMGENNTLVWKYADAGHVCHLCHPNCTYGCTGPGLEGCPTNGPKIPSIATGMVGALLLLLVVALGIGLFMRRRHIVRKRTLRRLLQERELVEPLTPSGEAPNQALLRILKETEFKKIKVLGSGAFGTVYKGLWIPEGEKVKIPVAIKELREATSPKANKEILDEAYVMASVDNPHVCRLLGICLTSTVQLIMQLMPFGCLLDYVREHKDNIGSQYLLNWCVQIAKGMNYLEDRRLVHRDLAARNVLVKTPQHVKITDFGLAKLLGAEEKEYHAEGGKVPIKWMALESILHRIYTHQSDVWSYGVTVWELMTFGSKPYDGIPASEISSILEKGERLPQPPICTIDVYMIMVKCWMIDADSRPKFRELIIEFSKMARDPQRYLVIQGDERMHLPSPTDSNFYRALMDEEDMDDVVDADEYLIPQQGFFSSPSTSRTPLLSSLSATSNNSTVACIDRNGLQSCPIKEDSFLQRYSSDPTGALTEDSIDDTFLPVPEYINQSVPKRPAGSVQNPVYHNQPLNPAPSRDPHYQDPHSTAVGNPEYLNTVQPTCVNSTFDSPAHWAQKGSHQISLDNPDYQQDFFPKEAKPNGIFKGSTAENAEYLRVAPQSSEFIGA
EXPERIMENT_DESCRIPTION: EGFRT790M kinase inhibitory assay (HTRF)
pIC50: −log10 of the molar value.
OBSERVATION_TYPE: pIC50

COMPOUND: COc1cc(-c2cc(-c3ccc(C)cc3)nc3nc4[nH]c5ccccc5c(=O)n4c(=O)c23)cc(OC)c1OC [Compound 8d]
RECORDED_MEASUREMENT: 6.54

COMPOUND: COc1ccc(-c2cc(-c3ccc(C)cc3)nc3nc4[nH]c5ccccc5c(=O)n4c(=O)c23)cc1 [Compound 8b]
RECORDED_MEASUREMENT: 6.54

(1) NNc1nc2nc(-c3ccc(Cl)cc3)cc(-c3ccc(Cl)cc3Cl)c2c(=O)[nH]1 [Compound 9a]
(2) Cc1ccc(-c2cc(-c3ccc(Cl)cc3)nc3nc4[nH]c5ccccc5c(=O)n4c(=O)c23)cc1 [Compound 8a]
Data request: Smaller pIC50 value? Options are 1 and 2 Lab log: write the label of the selected item as the result.
Data returned: 1
(1: 6.24, 2: 6.91)

---

System: lung cancer (A-549)
EXPERIMENT_DESCRIPTION: MTT antiproliferative assay, A-549
CONDITIONS: Homo sapiens, A549, read-out: IC50 A-549
OBSERVATION_TYPE: pIC50
Recall that pIC50 is obtained by taking minus log10 of the concentration measured in molar.

Data request: What value of pIC50 on lung cancer (A-549) does C#Cc1cccc(Nc2ncnc3cc(OCCOC)c(OCCOC)cc23)c1 [Erlotinib, reference compound] have?
Data returned: 5.19

---

System: colon cancer (HCT-116)
EXPERIMENT_DESCRIPTION: MTT antiproliferative assay, HCT-116
CONDITIONS: Homo sapiens, HCT-116, read-out: Growth inhibition (%) HCT-116
OBSERVATION_TYPE: inhibition at 100 µM (%)
Could you give me the number in %? Just the number is fine.

MOLECULE: O=c1[nH]c(=S)[nH]c2nc(-c3ccc(Cl)cc3)cc(-c3ccc(Cl)cc3Cl)c12 [Compound 7a]
TARGET_ENTITY: colon cancer (HCT-116)
inhibition at 100 µM [%]: 18

Data request: I am curious: what inhibition at 100 µM value has been reported for COc1ccc(-c2cc(-c3ccc(C)cc3)nc3nc4[nH]c5ccccc5c(=O)n4c(=O)c23)cc1 [Compound 8b] ?
Data returned: 67

Data request: I am curious: what inhibition at 100 µM value has been reported for COc1cc(-c2cc(-c3ccc(C)cc3)nc3nc4[nH]c5ccccc5c(=O)n4c(=O)c23)cc(OC)c1OC [Compound 8d] ?
Data returned: 78

Data request: I am curious: what inhibition at 100 µM value has been reported for Cc1ccc(-c2cc(-c3ccc(Cl)cc3)nc3nc4[nH]c5ccccc5c(=O)n4c(=O)c23)cc1 [Compound 8a] ?
Data returned: 84

Data request: I am curious: what inhibition at 100 µM value has been reported for COc1cc(-c2cc(-c3ccc(Cl)cc3)nc3nc4[nH]nc(-c5ccccc5)n4c(=O)c23)cc(OC)c1OC [Compound 12c] ?
Data returned: 33

Data request: I am curious: what inhibition at 100 µM value has been reported for COc1cccc2c1C(=O)c1c(O)c3c(c(O)c1C2=O)C[C@@](O)(C(=O)CO)C[C@@H]3O[C@H]1C[C@H](N)[C@H](O)[C@H](C)O1 [Doxorubicin, reference compound] ?
Data returned: 100
